tested_system: Corticotropin-releasing factor receptor 2/Corticotropin-releasing factor-binding protein (Homo sapiens, UniProt P24387+Q13324)
Sequence (Q13324 whole entry): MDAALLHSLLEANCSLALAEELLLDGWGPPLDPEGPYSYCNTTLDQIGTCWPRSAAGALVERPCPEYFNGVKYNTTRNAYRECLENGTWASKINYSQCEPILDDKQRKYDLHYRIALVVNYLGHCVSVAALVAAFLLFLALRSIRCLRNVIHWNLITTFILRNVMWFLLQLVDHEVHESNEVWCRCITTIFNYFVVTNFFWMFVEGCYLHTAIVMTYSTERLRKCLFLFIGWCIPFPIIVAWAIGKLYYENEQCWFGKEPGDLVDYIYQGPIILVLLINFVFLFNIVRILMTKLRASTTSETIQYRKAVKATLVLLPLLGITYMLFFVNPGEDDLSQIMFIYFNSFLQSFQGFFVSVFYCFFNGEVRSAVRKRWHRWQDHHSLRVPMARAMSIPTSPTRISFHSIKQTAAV
Sequence (P24387 whole entry): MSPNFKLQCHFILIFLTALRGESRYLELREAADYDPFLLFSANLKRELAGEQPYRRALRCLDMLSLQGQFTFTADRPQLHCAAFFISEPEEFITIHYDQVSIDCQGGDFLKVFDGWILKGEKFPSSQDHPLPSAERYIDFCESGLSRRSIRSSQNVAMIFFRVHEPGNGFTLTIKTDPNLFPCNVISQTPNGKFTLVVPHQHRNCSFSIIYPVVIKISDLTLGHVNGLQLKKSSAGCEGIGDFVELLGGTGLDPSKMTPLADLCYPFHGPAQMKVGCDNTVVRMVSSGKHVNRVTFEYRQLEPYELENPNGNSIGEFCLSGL
experiment: activators of CRF receptor 2 with binding protein – uHTS hits, confirmation (AID 602473)
Type: functional
applied_conditions: read-out: EC50_Mean
Calls of active or inactive are those of the source.
Outcomes: active, inactive

{"columns": ["smi", "discrete_label"],
 "data": [
  ["O=C(COC(=O)CC(c1ccccc1)c1ccccc1)NCc1ccc(Cl)cc1", "inactive"],
  ["Cc1ccccc1-c1nnc(S)n1/N=C/c1c(C)nn(-c2ccccc2)c1C", "inactive"],
  ["COc1cccc(CNc2nc(-c3cccnc3)nc3ccccc23)c1", "inactive"],
  ["Cc1ccc(C(=O)NC(=S)NNC(=O)c2cccc([N+](=O)[O-])c2)cc1", "active"],
  ["Cc1nn2c3ccccc3nc2n(C)c1=O", "inactive"]
]}

###

// reported IC50 for each item listed
tested_system: High affinity choline transporter 1 (Homo sapiens)
Sequence (Q9GZV3 whole entry): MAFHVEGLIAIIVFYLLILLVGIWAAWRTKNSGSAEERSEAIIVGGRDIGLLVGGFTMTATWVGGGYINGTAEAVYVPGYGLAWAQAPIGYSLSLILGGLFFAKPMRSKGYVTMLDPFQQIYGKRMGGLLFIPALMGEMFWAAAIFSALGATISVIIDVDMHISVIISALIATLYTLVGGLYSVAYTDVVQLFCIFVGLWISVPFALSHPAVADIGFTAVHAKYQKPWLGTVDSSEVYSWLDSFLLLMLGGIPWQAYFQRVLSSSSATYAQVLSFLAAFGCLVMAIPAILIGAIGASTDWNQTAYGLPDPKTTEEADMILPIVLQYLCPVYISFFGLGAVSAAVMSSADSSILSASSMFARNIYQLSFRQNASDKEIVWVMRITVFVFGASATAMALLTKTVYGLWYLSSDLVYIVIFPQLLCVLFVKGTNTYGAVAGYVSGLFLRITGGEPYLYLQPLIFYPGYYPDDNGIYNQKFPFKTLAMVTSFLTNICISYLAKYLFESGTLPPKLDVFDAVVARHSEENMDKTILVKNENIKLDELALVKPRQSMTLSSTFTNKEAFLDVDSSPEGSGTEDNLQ
experiment: CHT inhibitors, dose response, cell-based, 5-point CRC, membrane potential dye (AID 504840)
Type: functional
Active and inactive are the calls of the source.
observation_type: IC50

{"columns": ["molecule", "observation_type", "result"],
 "data": [
  ["C=CCNc1nc(SC)nc2ccsc12", "IC50", "1.73 µM (active)"],
  ["COc1ccccc1C(=O)NNC(=S)NC(=O)c1sc2ccccc2c1Cl", "IC50", "14.5 µM (active)"],
  ["O=C(CN1C(=O)S/C(=C\\c2cccc(Cl)c2)C1=O)NCCCn1ccnc1", "IC50", "20.9 µM (active)"],
  ["COc1ccc(C(=O)NC2CCc3ccccc32)cc1OC1CCN(C(C)C)CC1 (stereo not given)", "IC50", "5.55 µM (active)"],
  ["CCCOc1ccc(C(CC(=O)O)NC(=O)c2sc3ccccc3c2Cl)cc1 (stereo not given)", "IC50", "7.59 µM (active)"]
]}

###

The reader will find AC50 measurements below, all made with Cytochrome P450 2D6 (Homo sapiens).
Sequence (P10635 whole entry): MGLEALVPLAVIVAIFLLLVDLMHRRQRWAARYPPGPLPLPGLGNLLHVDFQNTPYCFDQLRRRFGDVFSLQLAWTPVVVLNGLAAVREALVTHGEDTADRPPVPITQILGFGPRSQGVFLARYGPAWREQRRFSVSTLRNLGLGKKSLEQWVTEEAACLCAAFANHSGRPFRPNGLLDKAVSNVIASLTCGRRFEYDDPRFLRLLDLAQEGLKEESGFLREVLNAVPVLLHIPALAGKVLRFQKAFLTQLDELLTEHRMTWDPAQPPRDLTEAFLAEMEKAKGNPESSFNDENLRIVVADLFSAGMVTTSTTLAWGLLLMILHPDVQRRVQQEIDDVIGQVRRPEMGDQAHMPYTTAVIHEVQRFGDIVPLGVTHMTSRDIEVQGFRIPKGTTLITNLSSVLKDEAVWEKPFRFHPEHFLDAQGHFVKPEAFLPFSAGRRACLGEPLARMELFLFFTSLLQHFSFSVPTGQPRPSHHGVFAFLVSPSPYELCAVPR
observation_type: AC50

{"columns": ["compound", "result"],
 "data": [
  ["CN(C)C(=O)N1CCCC(C(=O)NCCc2ccccc2)C1 (stereo not given)", "10 µM (inconclusive)"],
  ["CC(C)CN1CCC2(CC1)CCN(C(=O)Oc1ccccc1)CC2", "20 µM (inconclusive)"],
  ["COc1cccc(Cn2c(=O)c(-c3ccccc3)nc3cnc(OC)nc32)c1", "39.8 µM (inconclusive)"],
  ["O=C(O)/C=C\\C(=O)NCc1ccccc1", "0.794 µM (inconclusive)"],
  ["C/C(=N/NS(=O)(=O)c1ccc(C)cc1)c1cccc(NC(=O)c2cccc(Cl)c2)c1", "4.47 µM (inconclusive)"],
  ["OCCN1CCN(CCC=C2c3ccccc3Sc3ccc(Cl)cc32)CC1", "10 µM (inconclusive)"],
  ["COc1ccccc1-c1ccc2ncnc(N3CCN(C)CC3)c2c1", "39.8 µM (inconclusive)"],
  ["CN(C)c1ncc2nc(-c3ccccc3)c(=O)n(C[C@H]3CCCO3)c2n1", "12.6 µM (inconclusive)"],
  ["COc1ccc([C@@H](Nc2ncccn2)c2cc3c(cc2O)OCO3)cc1", "6.31 µM (inconclusive)"],
  ["O=C(CCCCn1c(=O)c2ccccc2n(CC(=O)NC2CCCC2)c1=O)NC1CCCC1", "14.1 µM (inconclusive)"],
  ["COc1ccc(C(=O)NC(=S)NNC(=O)CCc2ccccc2)cc1", "15.8 µM (inconclusive)"],
  ["COc1ccc2cc3cc(C(=O)NCCN4CCN(c5ccccc5F)CC4)oc3nc2c1", "31.6 µM (inconclusive)"],
  ["O=C(Nc1cccc(F)c1)N1CC2(CCNCC2)C1", "7.94 µM (inconclusive)"],
  ["Cc1cccc(C(=O)N2CCC(c3nc(-c4ccc(S(=O)(=O)N5CCOCC5)cc4)no3)CC2)c1", "0.00316 µM (inconclusive)"],
  ["C[C@]12Cc3cn4c(nc3C=C1CC[C@H]1[C@@H]2CC[C@@]2(C)[C@H]1CC[C@@]2(O)C#N)nc1ccccc14", "25.1 µM (inconclusive)"],
  ["COc1cccc(C(=O)NCCN2CCN(c3ccc(Cl)cc3)CC2)c1", "31.6 µM (inconclusive)"],
  ["CNc1cc(-c2ccccc2C)ncn1", "39.8 µM (inconclusive)"],
  ["O=S(=O)(N/N=C\\C=C\\c1ccccc1)c1ccc(Br)cc1", "22.4 µM (inconclusive)"],
  ["O=C(CC(=O)c1ccncc1)c1ccccc1", "1.58 µM (inconclusive)"],
  ["Cc1ccc(-c2c3c(nc4sc(C(N)=O)c(N)c24)CCC3)cc1", "22.4 µM (inconclusive)"]
]}

###

The reader will find AC50 measurements below, all made with Cytochrome P450 1A2 (Homo sapiens).
Sequence (P05177 whole entry): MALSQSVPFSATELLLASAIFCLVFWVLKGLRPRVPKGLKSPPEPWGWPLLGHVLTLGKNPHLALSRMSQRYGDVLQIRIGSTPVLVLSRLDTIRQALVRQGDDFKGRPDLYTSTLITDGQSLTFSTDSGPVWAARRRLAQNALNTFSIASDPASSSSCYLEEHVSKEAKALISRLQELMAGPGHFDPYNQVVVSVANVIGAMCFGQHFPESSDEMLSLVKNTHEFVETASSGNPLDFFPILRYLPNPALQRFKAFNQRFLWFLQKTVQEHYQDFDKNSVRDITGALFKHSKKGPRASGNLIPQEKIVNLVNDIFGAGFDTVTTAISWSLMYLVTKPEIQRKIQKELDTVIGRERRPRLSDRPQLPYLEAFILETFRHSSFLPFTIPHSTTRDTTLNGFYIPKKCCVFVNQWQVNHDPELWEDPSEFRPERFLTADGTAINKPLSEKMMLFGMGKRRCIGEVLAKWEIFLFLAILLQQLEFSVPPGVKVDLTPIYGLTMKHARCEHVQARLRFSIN
observation_type: AC50

{"columns": ["compound", "tested_system", "observation_type", "result"],
 "data": [
  ["COc1cccc(Cn2c(=O)c(-c3ccccc3)nc3cnc(OC)nc32)c1", "Cytochrome P450 1A2 (Homo sapiens)", "AC50", "15.8 µM (inconclusive)"],
  ["O=C(c1cnccn1)N1CCC[C@@]2(CCN(c3ccccn3)C2)C1", "Cytochrome P450 1A2 (Homo sapiens)", "AC50", "20 µM (inconclusive)"],
  ["Cc1c(Nc2ncccc2C(=O)O)cccc1C(F)(F)F", "Cytochrome P450 1A2 (Homo sapiens)", "AC50", "12.6 µM (inconclusive)"],
  ["CCOC(=O)C1=C(CN2c3ccccc3CC2C)NC(=O)NC1c1ccccc1 (stereo not given)", "Cytochrome P450 1A2 (Homo sapiens)", "AC50", "22.4 µM (inconclusive)"],
  ["NC[C@H](CP(=O)(O)O)c1ccc(Cl)cc1", "Cytochrome P450 1A2 (Homo sapiens)", "AC50", "39.8 µM (inconclusive)"]
]}

###

tested_system: Luciferin 4-monooxygenase (Photinus pyralis, UniProt P08659)
Sequence (P08659 whole entry): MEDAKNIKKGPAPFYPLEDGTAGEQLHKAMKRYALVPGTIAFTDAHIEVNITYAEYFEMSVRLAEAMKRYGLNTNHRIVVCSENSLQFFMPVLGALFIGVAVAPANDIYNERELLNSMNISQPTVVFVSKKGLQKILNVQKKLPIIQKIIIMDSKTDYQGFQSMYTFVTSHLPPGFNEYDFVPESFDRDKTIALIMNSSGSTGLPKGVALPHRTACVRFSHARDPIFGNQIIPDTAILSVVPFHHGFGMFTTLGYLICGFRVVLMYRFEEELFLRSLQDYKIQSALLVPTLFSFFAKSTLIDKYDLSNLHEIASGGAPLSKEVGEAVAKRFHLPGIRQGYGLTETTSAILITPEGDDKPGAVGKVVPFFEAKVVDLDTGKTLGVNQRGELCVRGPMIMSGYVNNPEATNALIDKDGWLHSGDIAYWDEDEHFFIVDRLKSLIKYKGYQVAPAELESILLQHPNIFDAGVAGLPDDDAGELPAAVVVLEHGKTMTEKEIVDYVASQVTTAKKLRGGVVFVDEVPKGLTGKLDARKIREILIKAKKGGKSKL
experiment: firefly luciferase enzyme inhibitors, dose response, biochemical, luminescence (AID 1891)
Active and inactive are the calls of the source.

{"columns": ["compound", "EC50"],
 "data": [
  ["Cc1ccc(C(=O)Nc2ccc(C)c(S(=O)(=O)N3CCOCC3)c2)c(C)c1", "> 112 µM (not active)"],
  ["COc1cc(O)oc1/C=N/c1ccc(C(=O)O)cc1", "10.7 µM (active)"],
  ["Oc1ccc(/C=N/Nc2nccnc2Cl)c(O)c1", "1.05 µM (active)"],
  ["Cc1ccc(-c2c3c(nc4sc(C(N)=O)c(N)c24)CCC3)cc1", "> 112 µM (not active)"],
  ["COc1cc(SC)ccc1C(=O)Nc1ncc(C)s1", "8.16 µM (active)"],
  ["N#CC(c1ccc(Cl)cc1)N1CCOCC1 (stereo unspecified)", "> 112 µM (not active)"]
]}

###

// reported EC50 for each item listed
tested_system: Protein RecA (Mycobacterium tuberculosis, UniProt P9WHJ3)
experiment: Fluorescence Cell-Free Homogeneous Dose Retest to Identify Inhibitors of RecA-Intein Splicing Activity. [Related pubchem assays (depositor defined):AID2097, AID2223, AID489010, AID492950]
Type: functional
Activity calls are given as the source filed them.

{"columns": ["compound", "EC50"],
 "data": [
  ["COc1cc(NCCCCCCCN)c2ncccc2c1", "0.401 µM (active)"],
  ["COc1ccc(C(=O)NC(=S)NNC(=O)CCc2ccccc2)cc1", "> 380 µM (inactive)"],
  ["COc1cc(/C=C(\\C#N)C(=O)c2c[nH]c3ccccc23)cc(OC)c1O", "1.18 µM (active)"],
  ["O=C(O)COc1cccc(/C=C2/SC(=S)N(Cc3ccccc3)C2=O)c1", "10.1 µM (active)"],
  ["Cc1cccc(Cn2ncc(Cl)c(Cl)c2=O)c1", "6.04 µM (active)"],
  ["COc1ccc(CN2CCNC(=O)C2CC(=O)N(C)Cc2ccncn2)c(OC)c1 (stereo unspecified)", "24.7 µM (active)"],
  ["COc1cc(C2C(C#N)=C(N)Oc3[nH]nc(C)c32)cc2c1OCO2 (stereo unspecified)", "1.38 µM (active)"],
  ["COc1cc(/C=C2\\C(=O)N(CCC#N)N=C2C)ccc1OCC(=O)Nc1ccccc1", "2.79 µM (active)"],
  ["O=C(Oc1ccc(-c2nnco2)cc1)c1ccco1", "15.3 µM (active)"],
  ["CCOC(=O)c1c(NC(=O)/C=C/C(=O)O)sc(C)c1-c1ccc(C)c(C)c1", "1.89 µM (active)"],
  ["CCN(CC)CCNC(=O)c1ccc2c(c1NCCO)C(=O)c1ccccc1C2=O", "0.524 µM (active)"]
]}
